# TARGET OF ASSAY: Motilin receptor (Homo sapiens, UniProt O43193)
# Sequence (O43193 whole entry): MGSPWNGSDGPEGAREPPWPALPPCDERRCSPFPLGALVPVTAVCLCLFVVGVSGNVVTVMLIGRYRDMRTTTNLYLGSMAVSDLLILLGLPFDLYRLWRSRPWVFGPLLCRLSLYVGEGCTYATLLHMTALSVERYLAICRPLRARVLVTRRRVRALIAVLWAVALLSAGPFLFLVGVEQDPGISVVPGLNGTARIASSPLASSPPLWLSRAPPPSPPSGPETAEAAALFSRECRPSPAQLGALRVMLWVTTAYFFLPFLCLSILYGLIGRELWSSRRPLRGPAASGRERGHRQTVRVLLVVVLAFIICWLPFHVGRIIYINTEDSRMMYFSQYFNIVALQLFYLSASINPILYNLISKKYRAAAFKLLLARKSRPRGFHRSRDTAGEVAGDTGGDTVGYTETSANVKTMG
# ASSAY INFO: Agonist activity at human recombinant motilin receptor expressed in CHO cells by FLIPR assay
QUANTITY KIND: EC50

Use the examples below as a reference point.
# SMILES DATA, EC50
records = [
    ("CC(C)S(=O)(=O)Nc1ccc2c(c1)CCN(Cc1ccn[nH]1)CC2", "> 12.6 µM"),
    ("CN(C(=O)c1ccc(N2CCOCC2)nc1)c1ccc2c(c1)CCNCC2", "> 12.6 µM"),
]

For the compound O=S(=O)(Cc1ccc2c(c1)CCNCC2)c1ccccc1 , what EC50 is on record?
> 12.6 µM

Proceed to O=C(Nc1ccc2c(c1)CCNCC2)c1ccc(N2CCOCC2)nc1
> 12.6 µM

Try the compound CCCCc1ccc(S(=O)(=O)Nc2ccc3c(c2)CCN(C2CCN(C)CC2)CC3)cc1
> 12.6 µM
